Ref: ChEMBL document CHEMBL4689842

# System: Fibroblast
# ASSAY_REMARKS: Multiplex assay against human fibroblast
# Type: toxicity, cell-based
# CONDITION_DESCRIPTION: 48 h, 1 µM, compound concentration 1 uM, replicate 2
Friendly reminder: Population Hoechst High Intensity Objects (%) below 10% is yes, at or above is no.

>  <MOLECULE>
CNc1nc(NCc2ccc(NS(C)(=O)=O)cc2Cl)cc(-c2ccccn2)n1

>  <ASSIGNED_CLASS>
yes

$$$$
>  <MOLECULE>
CN1CCN(c2ccc(OC(F)(F)F)c(Nc3ncc4c(n3)-c3c(c(C(N)=O)nn3CCO)CC4)c2)CC1

>  <ASSIGNED_CLASS>
no

$$$$
>  <MOLECULE>
Cc1csc2c(N[C@@H](C)CN3CCN(S(=O)(=O)c4ccc(Cl)c(Cl)c4)CC3)ncnc12

>  <ASSIGNED_CLASS>
yes

$$$$
>  <MOLECULE>
COc1cccc([C@@H](C)NCCCc2ccccc2Cl)c1.Cl [TECALCET HYDROCHLORIDE]

>  <ASSIGNED_CLASS>
no

$$$$
>  <MOLECULE>
CC[C@H](C)C(=O)O[C@H]1C[C@@H](C)C=C2C=C[C@H](C)[C@H](CC[C@@H]3C[C@@H](O)CC(=O)O3)[C@H]21

>  <ASSIGNED_CLASS>
yes

$$$$
>  <MOLECULE>
OC1(c2ccc(Cl)cc2)CCN(Cc2c[nH]c3ccccc23)CC1

>  <ASSIGNED_CLASS>
no

$$$$
>  <MOLECULE>
Cl.N#Cc1ccc2[nH]cc(CCCCN3CCN(c4ccc5oc(C(N)=O)cc5c4)CC3)c2c1 [VILAZODONE HYDROCHLORIDE]

>  <ASSIGNED_CLASS>
no

$$$$
>  <MOLECULE>
COc1cc(-n2cnc3cc(-c4ccc(Cl)cc4)sc3c2=O)ccc1OCCN1CCCC1

>  <ASSIGNED_CLASS>
no

$$$$
>  <MOLECULE>
Cc1cc(C)cc(-c2cnc3cc(Cl)c(-c4cccc(O)c4)cc3c2OCCCN)c1

>  <ASSIGNED_CLASS>
no

$$$$
>  <MOLECULE>
Cc1c(-c2ccc(O)cc2)n(Cc2ccc(OCCN3CCCCCC3)cc2)c2ccc(O)cc12

>  <ASSIGNED_CLASS>
no

$$$$
>  <MOLECULE>
c1cn2cc(-c3ccc4cn[nH]c4c3)nc(Nc3ccc(N4CCOCC4)cc3)c2n1

>  <ASSIGNED_CLASS>
no

$$$$
>  <MOLECULE>
CN1CCC[C@@H]1CCO[C@](C)(c1ccccc1)c1ccc(Cl)cc1.O=C(O)/C=C/C(=O)O [CLEMASTINE FUMARATE]

>  <ASSIGNED_CLASS>
no

$$$$
>  <MOLECULE>
C=CC(=O)Nc1ccc2ncnc(Nc3ccc(OCc4cccc(F)c4)c(Cl)c3)c2c1.Cc1ccc(S(=O)(=O)O)cc1

>  <ASSIGNED_CLASS>
no

$$$$
>  <MOLECULE>
CN1CCCC(n2nc(Cc3ccc(Cl)cc3)c3ccccc3c2=O)CC1.Cl (configuration not stated) [AZELASTINE HYDROCHLORIDE]

>  <ASSIGNED_CLASS>
yes

$$$$
